// data source = the supplement of paper PMC7125110

B1: glmS ribozyme (parent)
chain: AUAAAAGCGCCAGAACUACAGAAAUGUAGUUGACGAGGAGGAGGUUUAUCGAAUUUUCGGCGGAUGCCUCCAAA

Variants of: B1
run_description: self-cleavage kobs at 160 uM GlcN6P; higher = faster cleavage; RNA array
stated_conditions: with glucosamine-6-phosphate
Fewer inactive variants are shown than the library holds.
Entries and their measured self-cleavage kobs at 160 uM GlcN6P follow.

Field self-cleavage kobs at 160 uM GlcN6P (entry AUAAAAGUGCCAGAACUACAGAAAUGUAGUUGACCAGGAGGAGGUUUAUCGAAUUUUCGGCGGAUGCCUGCAAA [C8U G35C C70G] ) reads < 1e-05 s⁻¹

Field self-cleavage kobs at 160 uM GlcN6P (entry AUAAAAGCGCCAGAACUACAGAAAUGUAGUUGACGAGGAUGAGGUUUAUCGACUUUUCGGCGGAUGCCUCCAAA [G40U A53C] ) reads 0.00012 s⁻¹

Field self-cleavage kobs at 160 uM GlcN6P (entry AUAAAAGCGCACGAACUACAGAAAUGUAGUUGACGAGGAGGAGCUUUAACGAAUUUUCGGCGGAUGCCUCCAAA [C11A A12C G44C U49A] ) reads < 1e-05 s⁻¹

Field self-cleavage kobs at 160 uM GlcN6P (entry AUAAAAGCGCCAGACCUACAGAAAUGUAGUUGACGAGGAGGAGGUUUAUCGAAUUUUCGGCGGAUGCCUACAAA [A15C C70A] ) reads 3.37e-05 s⁻¹

Field self-cleavage kobs at 160 uM GlcN6P (entry AUAAAAGCGCCAGAACUACAGAAAUGUAGUGGACGAGGUGGAGGUUUAUCGAAUUUUCGGCGGAUGCCUCCAAA [U31G A39U] ) reads 0.000492 s⁻¹

Field self-cleavage kobs at 160 uM GlcN6P (entry AUAAAGGCGCCAGAACUACAGAAAUGUAGUUGACGAGGAGGAGGUUUAUCGAAUUUUCGGCGGAUGCCCCCAAA [A6G U69C] ) reads < 1e-05 s⁻¹

Field self-cleavage kobs at 160 uM GlcN6P (entry AUAAAAGCGCCAGAACUACAGAAAUGUAGUUGACGAGGAGGGGGUUUAUCGAAUUUUCGGCGGAAGCCUCCAAA [A42G U65A] ) reads 0.000409 s⁻¹

Field self-cleavage kobs at 160 uM GlcN6P (entry AUAAAAGCGCCAGAACUACAGAAAUGUAGUUGACGAGGAGGAGGUUUUCCGAAUUUUCGGCGGAUGCCUCCAAA [A48U U49C] ) reads < 1e-05 s⁻¹
